# Test system: L1210/0
# assay overview: inhibition of tumour cell proliferation
# Format: cell-based, murine
# protocol conditions: Mus musculus, mean of at least two experiments, read-out: ID50 (dose d'inhibition du développement cellulaire de 50 %)
measurement type: IC50

See these solved cases before continuing.
Nc1ncnc2c1ncn2[C@H]1C[C@H](O)[C@@H](CO)O1 [β dAdo, reference compound] :: > 500 µM
Nc1nc2c(ncn2[C@H]2C[C@H](O)[C@@H](CO)O2)c(=O)[nH]1 [β dGuo, reference compound] :: 58.2 µM
Cc1cn([C@@H]2C[C@H](O)[C@@H](CO)O2)c(=O)[nH]c1=O :: > 500 µM
Nc1ccn([C@@H]2C[C@H](O)[C@@H](CO)O2)c(=O)n1 :: > 500 µM
Nc1nc2c(ncn2[C@@H]2C[C@H](O)[C@@H](CO)O2)c(=O)[nH]1 :: > 500 µM
Nc1ncnc2c1ncn2[C@@H]1C[C@H](O)[C@@H](CO)O1 :: > 500 µM

As a next step, examine the compound that follows.
Kindly note the recorded IC50 for Cc1cn([C@H]2C[C@H](O)[C@@H](CO)O2)c(=O)[nH]c1=O [β dThd, reference compound] , which is 29 µM

---

# study target: réverse transcriptase de HIV1 (Human immunodeficiency virus type 1 group M subtype B, UniProt P03366)
# Construct: La réverse transcriptase de HIV1 ci-après abrégé RT a été partiellement purifiée; endogenous in cells; virus particles pelleted at 100,000 g and solubilised with Triton X-100
# assay overview: inhibition of exogenous reverse transcription, poly(A) template with oligo(dT)12-18 primer (Example 2)
# protocol conditions: 7,5 μM oligo(dT)12-18 primer, poly(A) template; read-out: ED50 (dose requise pour inhiber la réaction de transcription inverse de 50 %)
measurement type: EC50

Kindly note the recorded EC50 for Cc1cn([C@@H]2C[C@H](O)[C@@H](CO)O2)c(=O)[nH]c1=O , which is > 100 µM

---

# Tested on: CEM
# assay overview: inhibition of tumour cell proliferation
# Format: cell-based, humaine
# protocol conditions: Homo sapiens, CCRF-CEM, mean of at least two experiments, read-out: ID50 (dose d'inhibition du développement cellulaire de 50 %)
IC50 for assorted compounds
Supply the numeric figure in µM, leaving out any unit text.

Nc1nc2c(ncn2[C@H]2C[C@H](O)[C@@H](CO)O2)c(=O)[nH]1 [β dGuo, reference compound] :: 22.1

As a next step, examine the compound that follows.
The reported CEM IC50 of Nc1ncnc2c1ncn2[C@H]1C[C@H](O)[C@@H](CO)O1 [β dAdo, reference compound] is 189

---

# Tested on: CEM
# assay overview: inhibition of tumour cell proliferation
# Format: cell-based, humaine
# protocol conditions: Homo sapiens, CCRF-CEM, mean of at least two experiments, read-out: ID50 (dose d'inhibition du développement cellulaire de 50 %)
pIC50: −log10 of the molar value.
pIC50 for assorted compounds

See these solved cases before continuing.
Nc1nc2c(ncn2[C@@H]2C[C@H](O)[C@@H](CO)O2)c(=O)[nH]1 :: < 3.30
Cc1cn([C@H]2C[C@H](O)[C@@H](CO)O2)c(=O)[nH]c1=O [β dThd, reference compound] :: 4.61

As a next step, examine the compound that follows.
Kindly note the recorded pIC50 for Nc1ccn([C@@H]2C[C@H](O)[C@@H](CO)O2)c(=O)n1 , which is < 3.30
